test system: HuTCR Vb7/9 × Va10.2 (SKW3-3) (human)
run description: flow cytometry on SKW3-3 cells (no Vβ17)
endpoint name: MFI (MFI)
Note: unit MFI is implicit; provide only the numeric part.

23A9C10 (antibody, V domains shown) VH: EVQLQESGPGLVKPSQSLSLTCSVTGYSITSGYYWNWIRQFLGNKLEWMGYITYDGSNNYNPSLKDRISITRDTSKNQFFLNLNSVTTDDTATYYCARGGGYVPVWGTGTTVTVSS VL: DIQMTQSPAFLSVSPGERVSFSCRASQNIGTSIHWYQQRTNGSPRLLIKYASESISGIPSRFSGSGSGTDFTLSINSVESEDFADYYCHQSHNWPTTFGAGTKLELK | 458
20A9A9 (antibody, V domains shown) VH: EVQLQESGPGLVQPSQSLSITCTVSGFSLTSYGVHWVRQSPGKGLEWLGIIWSAGGTDYNAAFISRLSISKDNSKSQIFFKLNSLHADDTAIYFCARGSFYDYGRLDYWGQGTTLTVSS VL: DIVMTQSHRFMSTSVGDRVSITCKASQDVSTAVAWYQQKPGQSPKLLIYSSSYRYTGVPDRFTGSGSGTDFTFTISSVQAEDLAVYYCQQHYGTPYTFGGGTKLEIQ | 448
28B2A2 (antibody, IgG2a, V domains shown) VH: EVQLQESGPELVKPGASVKMSCKASGYTFTDDNMHWVKQSHGKSLEWIGYINPNNNHTNYNQKFKGKATLTVNKSSSTAYMELRSLTSEDSAVYFCARSTVVPFYAMDYWGQGTSVTVSS VL: DIVMTQSPASLSMAIGEKVTIRCITITDIDDDMNWYQQKPGEPPKLLFSEGNTLRPGVPSRFSSSGYGSDFAFTIENMLSEDVADYYCLQSDNLPLTFGAGTKLELK | 434

What the record says about 23A9F7 (antibody, V domains shown) VH: EVQLQESGPGLVKPSQSLSLTCSVTGYSITSGYYWNWIRQFLGNKLEWMGYITYDGSNNYNPSLKDRISITRDTSKNQFFLNLNSVTTDDTATYYCARGGGYVPVWGTGTTVTVSS VL: DVQMTQSPAFLSVSPGERVSFSCRASQNIGTSIHWYQQRTNGSPRLLIKYASESISGIPSRFSGSGSGTDFTLSINSVESEDFADYYCHQSHNWPTTFGAGTKLELK : MFI is 466

What the record says about 28B2A4 (antibody, IgG2a, V domains shown) VH: EVQLQESGPELVKPGASVKMSCKASGYTFTDDNMHWVKQSHGKSLEWIGYINPNNNHTNYNQKFKGKATLTVNKSSSTAYMELRSLTSEDSAVYFCARSTVVPFYAMDYWGQGTSVTVSS VL: DIQMTQSPASLSMAIGEKVTIRCITITDIDDDMNWYQQKPGEPPKLLFSEGNTLRPGVPSRFSSSGYGSDFAFTIENMLSEDVADYYCLQSDNLPLTFGGGTKLEIK : MFI is 472
